Ref: patent US20250270301A1

Biological target: T1, full length recombinant human 2N4R tau (human, UniProt P10636 1-758)
T1 construct: bought from rPeptide; pHrodo Red maleimide-labelled where it stands in uptake assays; also called tau1-441; full length tau
T1 sequence (P10636 other isoform, or with tags, fused parts or gaps limits assumed): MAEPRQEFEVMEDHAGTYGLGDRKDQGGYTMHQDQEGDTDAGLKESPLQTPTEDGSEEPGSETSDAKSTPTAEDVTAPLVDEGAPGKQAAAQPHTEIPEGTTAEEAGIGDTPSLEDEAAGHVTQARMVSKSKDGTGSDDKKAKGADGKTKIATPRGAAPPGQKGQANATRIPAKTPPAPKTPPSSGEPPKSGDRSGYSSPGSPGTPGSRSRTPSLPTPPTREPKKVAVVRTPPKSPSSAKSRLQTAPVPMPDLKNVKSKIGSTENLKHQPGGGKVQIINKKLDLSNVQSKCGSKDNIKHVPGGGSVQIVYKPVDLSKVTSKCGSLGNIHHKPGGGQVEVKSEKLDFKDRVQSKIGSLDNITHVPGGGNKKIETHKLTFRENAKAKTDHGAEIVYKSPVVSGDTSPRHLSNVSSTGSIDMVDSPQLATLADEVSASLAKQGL
Experiment: SPR SCK, IgG on Protein A, tau in flow
metric_name: kon

binder | kon
#44 VH1VK4 humanised hIgG1 (antibody, V domains shown, also called VH1Vκ4) VH: QSVQESGGGLVKPSETLSLTCTVSGIDLSSYAMAWVRQAPGKGLEWIGCIDRRGGTFYASWVKGRFTISKTSTTVDLKMTSLTAEDTATYFCARDSGAFDPWGQGTLVTVSS VL: DIQMTQSPSSLSASVGDRVTITCQASQSVYDNYLAWYQQKPGQPPKLLIHAASNLASGVPSRFSGSGSGTEFTLTISSLQPDDFATYYCLGEFSCTTTDCNVFGGGTKVEIK | 5.01e+06 M⁻¹ s⁻¹
#44 VH4VK1 humanised hIgG1 (antibody, V domains shown, also called VH4Vκ1) VH: QVQLQESGPGLVKPSETLSLTCTVSGIDLSSYAMAWVRQAPGKGLEWIGCIDRRGGTFYASWVKGRFTISKDTSKTTVDLQMTSLTAEDTATYFCARDSGAFDPWGQGTLVTVSS VL: QIVMTQSPSSLSASVGDRVTITCQASQSVYDNYLAWYQQKPGQPPKLLIHAASNLASRVPSRFKGSGSGTEFTLTISSLQCDDFATYYCLGEFSCTTTDCNVFGGGTEVVIK | 4.4e+06 M⁻¹ s⁻¹
#44 VH2VK4 humanised hIgG1 (antibody, V domains shown, also called VH2Vκ4) VH: QSVQESGPGLVKPSETLSLTCTVSGIDLSSYAMAWVRQAPGKGLEWIGCIDRRGGTFYASWVKGRFTISKTSTTVDLQMTSLTAEDTATYFCARDSGAFDPWGQGTLVTVSS VL: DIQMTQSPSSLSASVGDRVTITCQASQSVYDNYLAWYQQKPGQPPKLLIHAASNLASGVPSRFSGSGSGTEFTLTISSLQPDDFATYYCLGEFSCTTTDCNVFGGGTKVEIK | 3.66e+06 M⁻¹ s⁻¹
#44 VH1VK1 humanised hIgG1 (antibody, V domains shown, also called VH1Vκ1) VH: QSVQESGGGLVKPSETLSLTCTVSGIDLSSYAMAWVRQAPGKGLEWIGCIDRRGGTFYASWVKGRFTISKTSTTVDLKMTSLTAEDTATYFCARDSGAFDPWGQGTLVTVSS VL: QIVMTQSPSSLSASVGDRVTITCQASQSVYDNYLAWYQQKPGQPPKLLIHAASNLASRVPSRFKGSGSGTEFTLTISSLQCDDFATYYCLGEFSCTTTDCNVFGGGTEVVIK | 7.35e+06 M⁻¹ s⁻¹
#44 VH4VK2 humanised hIgG1 (antibody, V domains shown, also called VH4Vκ2; Clone VH4VK2 (C)) VH: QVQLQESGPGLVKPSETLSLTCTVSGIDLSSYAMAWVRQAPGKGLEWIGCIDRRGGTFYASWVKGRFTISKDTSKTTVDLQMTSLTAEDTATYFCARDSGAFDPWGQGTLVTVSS VL: QIVMTQSPSSLSASVGDRVTITCQASQSVYDNYLAWYQQKPGQPPKLLIHAASNLASGVPSRFKGSGSGTEFTLTISSLQPDDFATYYCLGEFSCTTTDCNVFGGGTKVEIK | 3.6e+06 M⁻¹ s⁻¹
#44 VH3VK1 humanised hIgG1 (antibody, V domains shown, also called VH3Vκ1) VH: QVQLQESGPGLVKPSETLSLTCTVSGIDLSSYAMAWVRQAPGKGLEWIGCIDRRGGTFYASWVKGRFTISKTSTTVDLQMTSLTAEDTATYFCARDSGAFDPWGQGTLVTVSS VL: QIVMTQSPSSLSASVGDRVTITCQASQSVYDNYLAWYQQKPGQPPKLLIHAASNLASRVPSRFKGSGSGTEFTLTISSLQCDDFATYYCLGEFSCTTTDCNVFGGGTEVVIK | 2.79e+06 M⁻¹ s⁻¹

Continue with the next binder.
Task: Please report the recorded kon for #44 VH2VK3 humanised hIgG1 (antibody, V domains shown, also called VH2Vκ3) VH: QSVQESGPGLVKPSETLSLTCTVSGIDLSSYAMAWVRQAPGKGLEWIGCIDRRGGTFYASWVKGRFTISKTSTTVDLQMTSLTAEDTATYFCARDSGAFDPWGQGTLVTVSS VL: DIQMTQSPSSLSASVGDRVTITCQASQSVYDNYLAWYQQKPGQPPKLLIHAASNLASGVPSRFKGSGSGTEFTLTISSLQPDDFATYYCLGEFSCTTTDCNVFGGGTKVEIK .
Output: 4.14e+06 M⁻¹ s⁻¹
